Task for the reader: assign each of the following compounds its reported pIC50.
Molecular target: Bifunctional epoxide hydrolase 2 (Homo sapiens, UniProt P34913)
Sequence (P34913 whole entry): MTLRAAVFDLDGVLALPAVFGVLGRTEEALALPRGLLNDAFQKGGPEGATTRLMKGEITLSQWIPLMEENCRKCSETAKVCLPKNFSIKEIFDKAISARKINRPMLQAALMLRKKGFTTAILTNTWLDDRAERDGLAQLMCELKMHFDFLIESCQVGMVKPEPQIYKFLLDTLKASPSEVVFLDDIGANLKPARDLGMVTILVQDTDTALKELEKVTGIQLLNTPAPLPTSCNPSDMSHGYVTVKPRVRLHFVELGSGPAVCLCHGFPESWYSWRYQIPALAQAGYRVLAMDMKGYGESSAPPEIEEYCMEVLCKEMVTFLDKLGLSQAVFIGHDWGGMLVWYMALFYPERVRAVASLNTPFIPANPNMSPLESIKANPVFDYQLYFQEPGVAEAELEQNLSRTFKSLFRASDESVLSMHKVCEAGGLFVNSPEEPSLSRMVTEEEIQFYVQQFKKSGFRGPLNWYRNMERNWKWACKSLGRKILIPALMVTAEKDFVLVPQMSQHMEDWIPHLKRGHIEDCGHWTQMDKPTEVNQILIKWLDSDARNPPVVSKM
Experiment: Inhibition of human sEH assessed as 6-methoxy-2-naphthaldehyde generation preincubated for 10 before addition of cyano(2-methyl-oxynaphthalen-6-yl)methyl trans-(3-phenyloxyran-2-yl) methyl carbonate by fluorescence analysis
On this scale, pIC50 is minus log10 of a concentration expressed in M (mol/L).

Item Cc1ccc(S(=O)(=O)N2CCC(C(=O)Nc3ccccc3)CC2)c(C)c1 has what recorded pIC50? 8.16

Subsequent entry: Cc1ccc(S(=O)(=O)N2CCC(C(=O)Nc3cccc4cccnc34)CC2)c(C)c1 8.22

Subsequent entry: Cc1ccc(S(=O)(=O)N2CCC(C(=O)NC3CCCc4ccccc43)CC2)c(C)c1 (stereo not given) 7.39

Subsequent entry: Cc1ccc(S(=O)(=O)N2CCC(C(=O)Nc3ccc(N4CCCCC4)cc3)CC2)c(C)c1 7.70

Subsequent entry: COc1ccc(NC(=O)C2CCN(S(=O)(=O)c3ccc(C)cc3C)CC2)cc1 7.60
